tested on: Enterococcus sp.; experiment: In vitro antibacterial evaluation: minimum inhibitory concentration (MIC), broth dilution method; type: cell-based; conditions: broth dilution, 5×10^5 CFU/mL, 18 hours at 35° C.
TEST_READOUT: MIC Enterococccus faecalis (GC 3059) (µg/mL)
The figure you give is taken to be in µg/mL; do not add the unit.

Prompt: Give the measured MIC Enterococccus faecalis (GC 3059) for N=C1NCC(C(O)C2NC(=O)C(Cc3ccc(OC4OC(CO)C(OC5OC6COC7(OC6C6OC8(OC56)C5CC6CC(C5)CC8C6)C5CC6CC(C5)CC7C6)C(O)C4O)cc3)NC(=O)C(CC3CCCCC3)NC(=O)CNC(=O)C(CO)NC(=O)C(C(O)C3CNC(=N)N3C3OC(CO)C(O)C(O)C3O)NC2=O)N1 (stereo not drawn) [Example 106b]
Response: 16

Prompt: Give the measured MIC Enterococccus faecalis (GC 3059) for CC(c1ccccc1)C1NC(=O)CNC(=O)C(CO)NC(=O)C(C(O)C2CNC(=N)N2C2OC(CO)C(O)C(O)C2O)NC(=O)C(C(O)C2CNC(=N)N2)NC(=O)C(Cc2ccc(OC3OC(CO)C(OC4OC5COC(c6ccccc6)OC5C(O)C4O)C(O)C3O)cc2)NC1=O (stereo not drawn) [Example 104]
Response: 4

Prompt: Give the measured MIC Enterococccus faecalis (GC 3059) for CC(C)=CCCC1OCC2OC(OC3C(CO)OC(Oc4ccc(CC5NC(=O)C(C(C)c6ccccc6)NC(=O)CNC(=O)C(CO)NC(=O)C(C(O)C6CNC(=N)N6C6OC(CO)C(O)C(O)C6O)NC(=O)C(C(O)C6CNC(=N)N6)NC5=O)cc4)C(O)C3O)C(O)C(O)C2O1 (stereo not drawn) [Example 123]
Response: 16

Prompt: Give the measured MIC Enterococccus faecalis (GC 3059) for Cc1cccc(C2OCC3OC(OC4C(CO)OC(Oc5ccc(CC6NC(=O)C(C(C)c7ccccc7)NC(=O)CNC(=O)C(CO)NC(=O)C(C(O)C7CNC(=N)N7C7OC(CO)C(O)C(O)C7O)NC(=O)C(C(O)C7CNC(=N)N7)NC6=O)cc5)C(O)C4O)C(O)C(O)C3O2)c1 (stereo not drawn) [Example 135]
Response: 2

Prompt: Give the measured MIC Enterococccus faecalis (GC 3059) for CC(c1ccccc1)C1NC(=O)CNC(=O)C(CO)NC(=O)C(C(O)C2CNC(=N)N2C2OC(CO)C(O)C(O)C2O)NC(=O)C(C(O)C2CNC(=N)N2)NC(=O)C(Cc2ccc(OC3OC(CO)C(OC4OC5COC(C6CC=CCC6)OC5C(O)C4O)C(O)C3O)cc2)NC1=O (stereo not drawn) [Example 115]
Response: 2

Pending molecule:
Prompt: Give the measured MIC Enterococccus faecalis (GC 3059) for CC(c1ccccc1)C1NC(=O)CNC(=O)C(CO)NC(=O)C(C(O)C2CNC(=N)N2C2OC(CO)C(O)C(O)C2O)NC(=O)C(C(O)C2CNC(=N)N2)NC(=O)C(Cc2ccc(OC3OC(CO)C(OC4OC5COC(C6CCCCC6)OC5C(O)C4O)C(O)C3O)cc2)NC1=O (stereo not drawn) [Example 112]
Response: 2
